Give koff for every item shown.
- SYSTEM UNDER TEST: T1, In house human CD8A-Fc (human, UniProt P01732 22-182, limits assumed)
- T1 construct: Captured on goat anti-human Fc on a ProteOn GLC chip; also called hCD8A-Fc; recombinant human CD8 alpha; not shown: linker with flag (and polyhistidine) tag and Fc of human IgG1
- T1 sequence (P01732 22-182 limits assumed): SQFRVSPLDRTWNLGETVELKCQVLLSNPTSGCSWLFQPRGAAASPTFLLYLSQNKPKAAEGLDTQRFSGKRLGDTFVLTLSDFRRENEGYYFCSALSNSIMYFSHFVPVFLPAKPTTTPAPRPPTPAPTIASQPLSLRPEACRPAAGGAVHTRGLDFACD
- METHOD: SPR (ProteOn), captured hCD8A-Fc
- Protocol: Purified anti-CD8A FN3 domains were subjected to off-rate analysis using a Proteon surface plasmon resonance instrument in order to pick clones with the slowest off-rates for further characterization. The immobilized GAH-Fc IgG densities averaged about 6000 Response Units (Ru) with less than 1% variation among different channels. […] The dissociation phase was monitored for 15 minutes at a flow rate of 100 μl/min using PBST as running buffer. […]
Write the figure, then the unit, nothing else.

Problem: Which koff is reported for this binder? P282DR9P1359_H5 (designed binder, FN3 domain) LPAPKNLVVSRVTEDSARLSWTAPDAAFDSFNIAYPEALHPGYGEAIVLTVPGSERSYDLTGLKPGTEYFVVIYGVKGGTNSEPLSAIFTT
Result: 0.00449 s⁻¹

Problem: Then P283AR9P1362_G3 (designed binder, FN3 domain) LPAPKNLVVSRVTEDSARLSWVKRATSFDSFLIQYQESEKVGEAIVLTVPGSERSYDLTGLKPGTEYTVSIYGVDVKWEGNRPVASNPLSAIFTT ?
Result: 9.45e-05 s⁻¹

Problem: Then P282DR9P1359_A8 (designed binder, FN3 domain) LPAPKNLVVSRVTEDSARLSWTAPDAAFDSFRIAYPEWPVQGEAIVLTVPGSERSYDLTGLKPGTEYFVIIYGVKGGELSPPLSAIFTT ?
Result: 0.000638 s⁻¹

Problem: Then P283BR9P1363_A8 (designed binder, FN3 domain) LPAPKNLVVSRVTEDSARLSWVRSDTARFFDSFLIQYQESEKVGEAIVLTVPGSERSYDLTGLKPGTEYTVSIYGVDVKYDIDSRPISSNPLSAIFTT ?
Result: 0.000353 s⁻¹
